- System: HCC-2998 colon
- method_summary: NCI tumour cell line growth inhibition, 48 h
measurement_type: TGI (µM)
Give your result in µM as a bare value.

molecule | TGI [µM]
CN(C)c1ccc2nc3ccc(=[N+](C)C)c([N+](=O)[O-])c-3sc2c1 | 16.8

For this molecule ( COP(=O)(OC)/C(=C\C1=CN(C(c2ccccc2)(c2ccccc2)c2ccccc2)CN1)NC=O ), measured TGI is 38.4

---

- Test system: NCI/ADR-RES ovarian
- method_summary: NCI tumour cell line growth inhibition, 48 h
measurement_type: TGI

// solved cases for TGI follow
molecule | target_of_assay | TGI
CCOC1CCC2C(CCC(/C=C/c3ccc(O)c4ncccc34)N2C)C1 (stereo not given) | NCI/ADR-RES ovarian | > 100 µM
N#C/C(=C\c1ccc2c(c1)OCO2)n1nnc2ccccc21 | NCI/ADR-RES ovarian | 17.2 µM
COc1ccc2cnc(N)c(C#Cc3cc(C(=O)Nc4ccc(CN5CCN(C)CC5)c(C(F)(F)F)c4)cnc3C)c2c1 | NCI/ADR-RES ovarian | > 34.7 µM
C=CCC(NCc1ccccc1)[C@H](OCc1ccccc1)[C@@H]1COC(C)(C)O1 (stereo not given in full) | NCI/ADR-RES ovarian | > 100 µM

Next up:
Note to self: TGI of O=c1cc(NNc2ccc(F)cc2)[nH]c(=O)[nH]1 with NCI/ADR-RES ovarian was 88.7 µM

Data credit: PubChem BioAssay (NCI)
